assay: MT1-MMP promoter reporter activation – cell-based, luciferase luminescence, primary screen (AID 750); details: HT1080 MT1-MMP promoter luciferase reporter, overnight, at 10 µM
The whole screen tested about 86,000 compounds, of which about 140 (0.16%) were called active.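 How the source made its calls: active means activation factor of at least 2 for MT1-MMP transcription at 10 µM; inactive means the rest.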 This excerpt belongs to a sample that is enriched for actives.
Permitted responses: true for active, false for inactive

1. COc1ccc(CN(C(=O)CSc2nnc(-c3ccc(OC)c(OC)c3)o2)c2ccc(F)cc2)cc1; false
2. COC(=O)c1ccc(NC(=O)Nc2ccc(C)cc2)cc1; false
3. CC(N=Cc1nc(-c2ccccc2)oc1O)c1ccccc1 (configuration not stated); false
4. COc1ccc(NC(=O)CCN2CCCC2)c(OC)c1; false
5. COc1ccc(CNc2ccc3c(c2)CCC3)cc1OC; false
6. O=C(N/N=C\c1cccc(Br)c1)c1ccccc1-n1cccc1; false
7. CS(=O)(=O)N(CC(=O)N1CCN(Cc2ccccc2)CC1)c1ccc2c(c1)OCCO2; false
8. CC1=NN(/C(=N\c2nnc(C)s2)Nc2ccccc2)[C@H](c2ccc(C)cc2)S1; false

Consider the record given below.
Enquiry: Tell me the assay call for Cc1ccc2c(c1)c1ncnc(N3CCc4ccccc4C3)c1n2C please.
Return: true
